tgt: BRM (Homo sapiens, UniProt P51531)
Construct: made in house; host or cells: High Five insect cells
Sequence (P51531 whole entry): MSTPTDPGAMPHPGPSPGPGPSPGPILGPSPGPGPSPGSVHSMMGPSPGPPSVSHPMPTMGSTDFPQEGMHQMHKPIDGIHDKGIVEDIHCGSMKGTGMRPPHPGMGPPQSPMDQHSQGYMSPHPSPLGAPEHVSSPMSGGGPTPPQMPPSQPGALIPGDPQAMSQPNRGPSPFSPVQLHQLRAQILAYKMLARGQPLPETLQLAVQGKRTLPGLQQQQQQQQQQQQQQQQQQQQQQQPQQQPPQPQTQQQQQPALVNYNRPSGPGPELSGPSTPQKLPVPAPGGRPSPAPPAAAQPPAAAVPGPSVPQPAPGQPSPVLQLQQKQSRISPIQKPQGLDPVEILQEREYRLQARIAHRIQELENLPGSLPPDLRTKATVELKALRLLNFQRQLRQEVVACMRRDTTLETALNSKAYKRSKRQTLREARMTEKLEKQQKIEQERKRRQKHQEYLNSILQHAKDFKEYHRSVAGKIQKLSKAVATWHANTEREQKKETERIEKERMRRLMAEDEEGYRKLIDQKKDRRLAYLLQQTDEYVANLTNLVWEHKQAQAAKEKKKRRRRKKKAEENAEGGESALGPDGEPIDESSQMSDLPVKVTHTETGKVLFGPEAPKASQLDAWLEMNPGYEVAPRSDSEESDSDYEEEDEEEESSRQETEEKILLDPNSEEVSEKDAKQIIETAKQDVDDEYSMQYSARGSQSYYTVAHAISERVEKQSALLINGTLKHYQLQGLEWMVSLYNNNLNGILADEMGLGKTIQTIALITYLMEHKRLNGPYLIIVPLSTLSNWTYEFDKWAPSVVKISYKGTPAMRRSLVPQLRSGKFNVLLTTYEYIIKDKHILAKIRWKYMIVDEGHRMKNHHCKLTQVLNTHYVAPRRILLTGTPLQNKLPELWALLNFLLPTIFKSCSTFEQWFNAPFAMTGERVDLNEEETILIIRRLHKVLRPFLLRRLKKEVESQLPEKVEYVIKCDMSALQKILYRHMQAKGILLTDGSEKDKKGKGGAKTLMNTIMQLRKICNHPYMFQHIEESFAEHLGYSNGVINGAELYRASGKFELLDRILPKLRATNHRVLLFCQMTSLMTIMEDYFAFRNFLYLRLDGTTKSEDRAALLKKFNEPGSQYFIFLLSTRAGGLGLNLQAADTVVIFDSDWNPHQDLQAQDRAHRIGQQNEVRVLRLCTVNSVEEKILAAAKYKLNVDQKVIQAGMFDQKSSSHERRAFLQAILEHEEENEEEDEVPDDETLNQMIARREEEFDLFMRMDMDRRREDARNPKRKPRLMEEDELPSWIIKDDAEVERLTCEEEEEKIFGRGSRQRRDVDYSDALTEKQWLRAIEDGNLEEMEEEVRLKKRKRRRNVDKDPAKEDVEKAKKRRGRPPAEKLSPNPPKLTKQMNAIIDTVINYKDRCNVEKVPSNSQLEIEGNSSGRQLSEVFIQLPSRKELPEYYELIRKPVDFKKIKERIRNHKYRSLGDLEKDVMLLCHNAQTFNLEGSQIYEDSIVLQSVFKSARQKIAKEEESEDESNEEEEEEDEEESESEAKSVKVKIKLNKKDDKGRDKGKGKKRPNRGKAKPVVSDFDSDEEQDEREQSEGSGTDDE
assayText: ATPase catalytic activity of BRM, ADP-Glo in vitro biochemical assay
details: ATPase catalytic activity, ADP-Glo; 30 nM BRM, 400 μM ATP
pIC50: −log10 of the molar value.
valueKind: pIC50

                                   molecule  observed
0  CC1CN(c2cccc(-c3ccc4cnc(CNC(=O)c5ccc6c(c5)S(=O)(=O)C(C)CN6C)cc4n3)n2)CC(C)O1 (stereo not shown) [Compound 567]      7.48

P = C[C@]1(F)CCCN(c2cccc(-c3ccc4cnc(CNC(=O)c5ccc6c(c5)S(=O)(=O)CCOC6)cc4n3)n2)C1
Q = COc1cc(C(F)(F)F)ccc1-c1ccc2cnc(CNC(=O)c3ccc4c(c3)S(=O)(=O)CCOC4)cc2n1
Pick the one with the larger pIC50: P vs Q Selection: enter the item's label.
P
